study-target: UniProt:Q9NPD5
Sequence (Q9NPD5 whole entry): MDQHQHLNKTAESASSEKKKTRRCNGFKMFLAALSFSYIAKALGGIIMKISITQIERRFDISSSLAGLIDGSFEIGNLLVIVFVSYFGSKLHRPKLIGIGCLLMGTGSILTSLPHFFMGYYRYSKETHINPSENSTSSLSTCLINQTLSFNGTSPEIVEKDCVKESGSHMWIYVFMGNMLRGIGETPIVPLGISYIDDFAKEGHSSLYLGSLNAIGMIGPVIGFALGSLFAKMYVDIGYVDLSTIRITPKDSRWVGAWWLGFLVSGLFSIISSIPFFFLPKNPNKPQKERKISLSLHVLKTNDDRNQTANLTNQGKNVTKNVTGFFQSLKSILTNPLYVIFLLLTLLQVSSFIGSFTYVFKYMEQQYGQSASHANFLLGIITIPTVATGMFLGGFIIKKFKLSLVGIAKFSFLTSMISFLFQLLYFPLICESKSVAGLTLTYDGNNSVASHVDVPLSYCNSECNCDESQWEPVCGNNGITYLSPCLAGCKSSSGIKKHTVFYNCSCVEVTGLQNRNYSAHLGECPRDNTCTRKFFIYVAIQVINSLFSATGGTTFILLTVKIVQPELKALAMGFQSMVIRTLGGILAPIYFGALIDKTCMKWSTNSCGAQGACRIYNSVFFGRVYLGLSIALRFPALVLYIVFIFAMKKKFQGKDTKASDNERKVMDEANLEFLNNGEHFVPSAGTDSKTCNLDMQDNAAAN
assay-conditions: chinese hamster, cho, 10 µM

- compound: "c1cc2c(cc1[C@H]1OC[C@H]3[C@@H]1CO[C@H]3c1ccc3c(c1)OCO3)OCO2"
  residual activity: "116.8%"
- compound: "OC[C@H]1O[C@@H](n2cnc3c(NCc4ccco4)ncnc32)[C@H](O)[C@@H]1O [KINETIN RIBOSIDE]"
  residual activity: "112%"
- compound: "CC(=O)O[C@H]1C[C@@H](OC(C)=O)C(C)(C)[C@@H]2C[C@@H](OC(C)=O)[C@]3(C)[C@H](CC[C@@]4(C)[C@H](c5ccoc5)OC(=O)[C@H]5O[C@@]534)[C@@]12C"
  residual activity: "94.96%"
- compound: "COc1ccc2c(=O)cc(-c3ccccc3OC)oc2c1"
  residual activity: "110.5%"
- compound: "NCC(O)CC(=O)O (stereo not drawn) [GAMMA-AMINO-BETA-HYDROXYBUTYRIC ACID]"
  residual activity: "106.5%"
- compound: "O=C1O[C@H]([C@@H](O)CO)C(O)=C1O"
  residual activity: "96.05%"
- compound: "COP(=S)(OC)SCn1nnc2ccccc2c1=O"
  residual activity: "101.8%"
- compound: "O=C(O)CCC(=O)c1ccc(-c2ccccc2)cc1"
  residual activity: "86.33%"

====

study-target: Solute carrier organic anion transporter family member 1B3 (Homo sapiens, UniProt Q9NPD5)
assay-conditions: chinese hamster, cho, 10 µM
Would you mind labelling by residual activity? At or over 80% is Satisfied, under is Not satisfied.

- compound: "O=C(O)c1cc(O)c2ccc(Cl)cc2n1 [7-CHLOROKYNURENIC ACID]"
  study-target: "Solute carrier organic anion transporter family member 1B3 (Homo sapiens, UniProt Q9NPD5)"
  class-assignment: "Satisfied"
- compound: "COc1c(O)cc2oc3cc(O)c(CC=C(C)C)c(O)c3c(=O)c2c1CC=C(C)C [MANGOSTIN]"
  study-target: "Solute carrier organic anion transporter family member 1B3 (Homo sapiens, UniProt Q9NPD5)"
  class-assignment: "Satisfied"
- compound: "Cl.OCCN1CCN(CCCN2c3ccccc3Sc3ccc(C(F)(F)F)cc32)CC1"
  study-target: "Solute carrier organic anion transporter family member 1B3 (Homo sapiens, UniProt Q9NPD5)"
  class-assignment: "Satisfied"
- compound: "N[C@@H](CCC(=O)N[C@@H](CS)C(=O)NCC(=O)O)C(=O)O [GLUTATHIONE]"
  study-target: "Solute carrier organic anion transporter family member 1B3 (Homo sapiens, UniProt Q9NPD5)"
  class-assignment: "Satisfied"
- compound: "COc1cc(O)c2c(=O)cc(-c3ccc(OC)c(-c4c(O)cc(O)c5c(=O)cc(-c6ccc([O-])cc6)oc45)c3)oc2c1.[K+] [GINKGETIN, K salt]"
  study-target: "Solute carrier organic anion transporter family member 1B3 (Homo sapiens, UniProt Q9NPD5)"
  class-assignment: "Not satisfied"
- compound: "COc1cc2nc(N3CCN(C(=O)c4ccco4)CC3)nc(N)c2cc1OC.Cl [PRAZOSIN HYDROCHLORIDE]"
  study-target: "Solute carrier organic anion transporter family member 1B3 (Homo sapiens, UniProt Q9NPD5)"
  class-assignment: "Satisfied"
- compound: "C[C@]12CC[C@H](Cl)C[C@@H]1CC[C@@H]1[C@@H]2CC[C@]2(C)C(=O)CC[C@@H]12"
  study-target: "Solute carrier organic anion transporter family member 1B3 (Homo sapiens, UniProt Q9NPD5)"
  class-assignment: "Not satisfied"
- compound: "CC(N)C(O)c1ccc(O)c(O)c1.Cl (stereo unspecified) [NORDEFRIN HYDROCHLORIDE]"
  study-target: "Solute carrier organic anion transporter family member 1B3 (Homo sapiens, UniProt Q9NPD5)"
  class-assignment: "Satisfied"
- compound: "CC1COc2c(N3CCN(C)CC3)c(F)cc3c(=O)c(C(=O)O)cn1c23 (stereo unspecified) [OFLOXACIN]"
  study-target: "Solute carrier organic anion transporter family member 1B3 (Homo sapiens, UniProt Q9NPD5)"
  class-assignment: "Satisfied"
- compound: "COc1cc2ccc(=O)oc2c(OC)c1OC [FRAXIDIN METHYL ETHER]"
  study-target: "Solute carrier organic anion transporter family member 1B3 (Homo sapiens, UniProt Q9NPD5)"
  class-assignment: "Satisfied"
- compound: "COC(=O)C(N)CS.Cl (stereo unspecified) [MECYSTEINE HYDROCHLORIDE]"
  study-target: "Solute carrier organic anion transporter family member 1B3 (Homo sapiens, UniProt Q9NPD5)"
  class-assignment: "Satisfied"
- compound: "COC1C(O)C(O[C@H]2CC[C@]3(C=O)C4C(CC[C@]3(O)C2)[C@@]2(O)CC[C@H](C3=CC(=O)OC3)[C@@]2(C)C[C@H]4OC(C)=O)OC(C)C1OC(C)=O (stereo partly specified) [SARMENTOSIDE B]"
  study-target: "Solute carrier organic anion transporter family member 1B3 (Homo sapiens, UniProt Q9NPD5)"
  class-assignment: "Not satisfied"
- compound: "O=C(O)c1cc2ccccc2c(Cc2c(O)c(C(=O)O)cc3ccccc23)c1O.OCCOCCN1CCN(C(c2ccccc2)c2ccc(Cl)cc2)CC1 [HYDROXYZINE PAMOATE]"
  study-target: "Solute carrier organic anion transporter family member 1B3 (Homo sapiens, UniProt Q9NPD5)"
  class-assignment: "Not satisfied"
- compound: "C=CC(N)CCC(=O)O (stereo unspecified) [VIGABATRIN]"
  study-target: "Solute carrier organic anion transporter family member 1B3 (Homo sapiens, UniProt Q9NPD5)"
  class-assignment: "Satisfied"

// provenance: ChEMBL document CHEMBL3039007
